- Assay Summary: clinical
- Condition Label: human, in vivo
Quantity Measured: half-life (h)
Give just the number in h; leave the unit off.

// half-life value for NC(=O)CC[C@@H]1NC(=O)[C@H](Cc2ccccc2)NC(=O)[C@H](Cc2ccc(O)cc2)NC(=O)CCSSC[C@@H](C(=O)N2CCC[C@H]2C(=O)N[C@H](CCCN=C(N)N)C(=O)NCC(N)=O)NC(=O)[C@H](CC(N)=O)NC1=O : 1.5

* * *

- Assay Summary: clinical
- Condition Label: human, in vivo, sc, 0.12 ug
Quantity Measured: CL/F (mL/min)
The reply should contain only the number, in mL/min.

The recorded CL/F for NC(=O)CC[C@@H]1NC(=O)[C@H](Cc2ccccc2)NC(=O)[C@H](Cc2ccc(O)cc2)NC(=O)CCSSC[C@@H](C(=O)N2CCC[C@H]2C(=O)N[C@H](CCCN=C(N)N)C(=O)NCC(N)=O)NC(=O)[C@H](CC(N)=O)NC1=O is 227

* * *

- Assay Summary: clinical
- Condition Label: human, in vivo, sc, 0.12 ug; SD
Quantity Measured: AUC(0-inf)
Dear colleague, please send the value followed by its unit.

Looking up NC(=O)CC[C@@H]1NC(=O)[C@H](Cc2ccccc2)NC(=O)[C@H](Cc2ccc(O)cc2)NC(=O)CCSSC[C@@H](C(=O)N2CCC[C@H]2C(=O)N[C@H](CCCN=C(N)N)C(=O)NCC(N)=O)NC(=O)[C@H](CC(N)=O)NC1=O , I found its AUC(0-inf) recorded as 0.0102 ng·h/mL
